Hi there, I'd appreciate the recorded self-cleavage kobs at 160 uM GlcN6P for every entry that follows.
B1: glmS ribozyme (parent)
chain: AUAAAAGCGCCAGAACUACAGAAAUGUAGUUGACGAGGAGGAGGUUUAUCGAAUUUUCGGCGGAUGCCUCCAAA

# Variants of: B1
# experimentSummary: self-cleavage kobs at 160 uM GlcN6P; higher = faster cleavage; RNA array
# testConditions: with glucosamine-6-phosphate
Variants at the floor of the assay were thinned out.
Please respond with the number in s⁻¹ and leave the unit unwritten.

Per the records, this variant ( G13A A15G ) has self-cleavage kobs at 160 uM GlcN6P equal to 6.23e-05

Per the records, this variant ( C34U G37A C50A A52G C70G ) has self-cleavage kobs at 160 uM GlcN6P equal to 0.000507

Per the records, this variant ( G66U U69A ) has self-cleavage kobs at 160 uM GlcN6P equal to 7.46e-05

Per the records, this variant ( U30C G32A ) has self-cleavage kobs at 160 uM GlcN6P equal to 0.000106

Per the records, this variant ( U56G C71A ) has self-cleavage kobs at 160 uM GlcN6P equal to 0.000152

Per the records, this variant ( G41U C70A ) has self-cleavage kobs at 160 uM GlcN6P equal to 0.00721

Per the records, this variant ( A14U U55C ) has self-cleavage kobs at 160 uM GlcN6P equal to 0.000488

Per the records, this variant ( C50G C61U A64G ) has self-cleavage kobs at 160 uM GlcN6P equal to 8.89e-05

Per the records, this variant ( U46C U47G ) has self-cleavage kobs at 160 uM GlcN6P equal to 0.00015

Per the records, this variant ( U46G U69C ) has self-cleavage kobs at 160 uM GlcN6P equal to 0.000315
